Target: T1, Macaca fascicularis (mf) RET.mmh (Macaca fascicularis)
T1 construct: also called monkey RET
T1 chain: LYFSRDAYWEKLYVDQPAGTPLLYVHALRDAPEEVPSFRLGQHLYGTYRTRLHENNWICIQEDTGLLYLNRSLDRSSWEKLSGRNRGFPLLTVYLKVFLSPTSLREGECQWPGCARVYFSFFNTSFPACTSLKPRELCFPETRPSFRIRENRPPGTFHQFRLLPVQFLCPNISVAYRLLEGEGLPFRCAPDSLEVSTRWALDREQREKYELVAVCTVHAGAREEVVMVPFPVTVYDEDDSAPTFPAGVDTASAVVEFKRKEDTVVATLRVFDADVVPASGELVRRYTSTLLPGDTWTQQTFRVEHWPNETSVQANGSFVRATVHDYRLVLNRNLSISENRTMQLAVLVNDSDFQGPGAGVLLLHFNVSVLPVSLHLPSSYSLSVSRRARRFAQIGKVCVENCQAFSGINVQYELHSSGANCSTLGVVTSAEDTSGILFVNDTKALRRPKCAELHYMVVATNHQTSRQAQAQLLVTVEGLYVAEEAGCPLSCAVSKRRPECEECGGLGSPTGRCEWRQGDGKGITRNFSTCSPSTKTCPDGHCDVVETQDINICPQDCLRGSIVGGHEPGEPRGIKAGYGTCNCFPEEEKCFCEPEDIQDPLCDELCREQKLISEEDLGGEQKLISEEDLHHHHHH
Experiment: SPR Biacore T200, mAb capture, 25 C
Recorded t½ by entry
Kindly provide the numeric value in min only, without the unit symbol.

Below, 2 binders whose answers are already recorded.
H4H8084P (antibody, human IgG4, V domains shown, human IgG4 Fc (H4H prefix)) VH: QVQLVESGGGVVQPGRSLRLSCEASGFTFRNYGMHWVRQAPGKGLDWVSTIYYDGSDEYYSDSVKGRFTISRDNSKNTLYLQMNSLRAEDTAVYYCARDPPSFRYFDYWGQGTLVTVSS VL: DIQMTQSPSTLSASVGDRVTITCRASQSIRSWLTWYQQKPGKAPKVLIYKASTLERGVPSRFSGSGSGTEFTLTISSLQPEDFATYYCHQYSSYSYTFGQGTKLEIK | 29
H4H8058P (antibody, human IgG4, V domains shown, human IgG4 Fc (H4H prefix)) VH: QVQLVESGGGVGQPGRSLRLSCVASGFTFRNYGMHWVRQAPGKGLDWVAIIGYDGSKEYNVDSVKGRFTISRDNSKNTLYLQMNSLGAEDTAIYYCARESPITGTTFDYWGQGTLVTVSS VL: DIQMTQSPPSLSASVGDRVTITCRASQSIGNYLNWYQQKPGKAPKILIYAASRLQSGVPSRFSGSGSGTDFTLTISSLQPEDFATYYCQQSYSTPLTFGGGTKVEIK | 21

Now turn to the next binder.
Form: binder = H4H8060P (antibody, human IgG4, V domains shown, human IgG4 Fc (H4H prefix)) VH: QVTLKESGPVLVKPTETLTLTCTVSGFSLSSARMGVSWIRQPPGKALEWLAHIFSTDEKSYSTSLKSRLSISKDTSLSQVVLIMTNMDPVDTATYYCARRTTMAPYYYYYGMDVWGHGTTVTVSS VL: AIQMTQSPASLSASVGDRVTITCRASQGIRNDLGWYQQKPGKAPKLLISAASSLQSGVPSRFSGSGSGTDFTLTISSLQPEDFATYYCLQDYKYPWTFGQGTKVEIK ; t½ = 29
